# assay_info: protein stability index of a GFP-peptide fusion (GPS, HEK-293T) (PSI 1-6); higher = more stable;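 also: 24-mer peptide tiles fused after GFP, lentivirally expressed, FACS-sorted into six equal bins by GFP/DsRed ratio, decoded by Illumina sequencing, PSI is the read-weighted mean bin number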
# condition: treatment: MLN4924 1 uM, 8 h; c terminus: a fixed tail appended
recorded_metric: protein stability index
Give a plain numeric answer without units written out.

# biopolymer_sequence, protein stability index
measured = [
    ("ATDGARPQALPEPMQESKAEGNNQ [CHGA]", 5.76),
    ("SSSINSPDRASGPEGSLSQTMAGS [FAM104A]", 5.04),
    ("KRRRKSCQACRFMKCLKVGMLKEG [ESRRG]", 2.78),
    ("LTYACENGHTDVADVLLQAGADLE [ANKRD17]", 4.68),
    ("TMAQHAEVLVKSNNLTDRIVVIPG [CARM1]", 3.36),
]

query: For the sequence CYNCEEEAMYHCCWNTSYCSIKCQ [ZMYND11] , what protein stability index is on record?
result: 2.79

query: Now consider SFMTWLRSYIKLFQAPCQRCGKFL [MED27] .
result: 2.48

query: Try this sequence too: ESESPQSHRAAGSGVSDYDYLDLD [TRIM9]
result: 5.35

query: Further, for LDQLRFPNGVQLSPAEDFVLVAET [APMAP] ?
result: 3.27

query: Now try RAQEREQIKALNNKFASFIDKVRF [KRT71] .
result: 2.2

query: Same question, GYGIYYFIYSTWKGRTIYLEDIYV [SAT2] this time
result: 2.78

query: Now try QAHGSEGLTFQGLLPLTELSVCPL [PLEKHN1] .
result: 3.05

query: Thanks! And TELLAERFYYQALSVAPQIGMPFN [SMG5] ?
result: 2.16
